- EXPERIMENT: Equilibrium solubility study of polymorphs in different vehicles
- Format: physicochemical
- EXPERIMENTAL CONTEXT: FeSSIF, 37±2 °C, 24 h, suspension ~10 mg/mL; 1440 min; in mg/mL (unit assumed)
- Description: The equilibrium solubility of the crystal forms A, B, C, and D of compound (IE) was tested in water (H2O), fasted state simulated gastric fluid (FaSSGF), fasted state simulated intestinal fluid (FaSSIF), and fed state simulated intestinal fluid (FeSSIF). In the test, the solids were suspended in corresponding buffers to formulate suspensions (~10 mg/mL) and mixed at 37±2 °C. After 24 h, samples of the suspensions were taken. The supernatant was filtered, and the concentration was determined.
MEASURED PARAMETER: Equilibrium solubility

>>> endpoint_result("Cc1cc(Nc2ncc3c(=O)n4n(c3n2)-c2cccc(n2)[C@](C)(O)CC/C=C\\C4)ccc1OC1CCN(C)CC1 [Crystal form A of compound IE]")
0.27
>>> endpoint_result("Cc1cc(Nc2ncc3c(=O)n4n(c3n2)-c2cccc(n2)[C@](C)(O)CC/C=C\\C4)ccc1OC1CCN(C)CC1 [Crystal form C of compound IE]")
1.299
>>> endpoint_result("Cc1cc(Nc2ncc3c(=O)n4n(c3n2)-c2cccc(n2)[C@](C)(O)CC/C=C\\C4)ccc1OC1CCN(C)CC1 [Crystal form D of compound IE]")
0.11
>>> endpoint_result("Cc1cc(Nc2ncc3c(=O)n4n(c3n2)-c2cccc(n2)[C@](C)(O)CC/C=C\\C4)ccc1OC1CCN(C)CC1 [Crystal form B of compound IE]")
2.07

====

For reference, IC50 measured on Wee1 kinase (Homo sapiens, UniProt P30291):
MEASURED PARAMETER: IC50 (nM)

>>> endpoint_result("Cc1cc(Nc2ncc3c(=O)n4n(c3n2)-c2cccc(n2)C(C)(O)CCC=CC4)ccc1NC1CC2CCC(C1)N2C (single isomer, unassigned) [Compound 225A]")
20.4
>>> endpoint_result("CCOP1(=O)CCN(c2ccc(Nc3ncc4c(=O)n5n(c4n3)-c3cccc(n3)C(C)(O)CCC=CC5)cc2C)CC1 (racemic)")
30.1
>>> endpoint_result("CCOP1(=O)CCN(c2ccc(Nc3ncc4c(=O)n5n(c4n3)-c3cccc(n3)C(C)(O)CCC=CC5)cc2)CC1 (stereo not drawn)")
33.2
>>> endpoint_result("Cc1cc(Nc2ncc3c(=O)n4n(c3n2)-c2cccc(n2)C(C)(O)CC/C=C\\C4)ccc1O[C@H]1CCN(C)C1 (stereo partly drawn)")
18.7
>>> endpoint_result("Cc1cc(Nc2ncc3c(=O)n4n(c3n2)-c2cccc(n2)[C@@](C)(O)CCC=CC4)ccc1OC1CCN(C)CC1")
21
>>> endpoint_result("Cc1cc(Nc2ncc3c(=O)n4n(c3n2)-c2cccc(n2)[C@](C)(O)CCC=CC4)ccc1OC1CCN(C)CC1 (stereo in doubt)")
7.8

====

- TESTED SYSTEM: Wee1 kinase (Homo sapiens, UniProt P30291)
- Sequence (P30291 whole entry): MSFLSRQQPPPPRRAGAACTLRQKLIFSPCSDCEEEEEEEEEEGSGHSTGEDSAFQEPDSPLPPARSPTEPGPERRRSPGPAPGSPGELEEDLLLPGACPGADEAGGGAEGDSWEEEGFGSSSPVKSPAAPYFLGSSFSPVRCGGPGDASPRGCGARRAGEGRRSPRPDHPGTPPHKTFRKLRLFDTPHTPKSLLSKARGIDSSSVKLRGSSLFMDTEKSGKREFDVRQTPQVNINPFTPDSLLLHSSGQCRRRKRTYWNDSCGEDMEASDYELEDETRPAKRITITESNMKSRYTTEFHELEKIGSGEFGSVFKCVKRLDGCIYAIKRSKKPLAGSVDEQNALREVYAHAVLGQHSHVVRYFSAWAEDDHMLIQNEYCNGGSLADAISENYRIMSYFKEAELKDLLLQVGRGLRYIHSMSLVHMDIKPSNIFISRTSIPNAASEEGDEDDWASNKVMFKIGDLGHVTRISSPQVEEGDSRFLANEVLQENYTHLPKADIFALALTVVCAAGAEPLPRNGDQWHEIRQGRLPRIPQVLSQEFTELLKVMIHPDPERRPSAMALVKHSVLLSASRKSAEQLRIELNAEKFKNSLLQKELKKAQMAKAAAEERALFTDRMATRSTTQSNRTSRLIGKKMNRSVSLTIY
- EXPERIMENT: WEE1 protein kinase inhibitory activity assay (ADP-GLO luminescence)
- Assay type: biochemical
- EXPERIMENTAL CONTEXT: Wee1 10 ng/well, ATP 10 µM, 3 h, 37 °C
Classify: satisfied when IC50 is strictly less than 10 nM; not satisfied when IC50 is not.

>>> qualitative_label("Cc1cc(Nc2ncc3c(=O)n4n(c3n2)-c2cccc(n2)C(C)(O)CC/C=C\\C4)ccc1CN1CCN(C)CC1 (single isomer, unassigned) [Compound 219A]")
"not satisfied"
>>> qualitative_label("Cc1cc(Nc2ncc3c(=O)n4n(c3n2)-c2cccc(n2)C(C)(O)CC/C=C\\C4)ccc1OC1CC2CN(C)CC2C1 (single isomer, unassigned) [Compound 224A]")
"not satisfied"
>>> qualitative_label("[2H]C1(Oc2ccc(Nc3ncc4c(=O)n5n(c4n3)-c3cccc(n3)[C@](C)(O)CCC=CC5)cc2C)CCN(C)CC1 (single isomer, unassigned) [Compound 172A]")
"satisfied"
>>> qualitative_label("CN1CC2CC(Oc3ccc(Nc4ncc5c(=O)n6n(c5n4)-c4cccc(n4)C(C)(O)CCC=CC6)cc3C(F)(F)F)CC2C1 (stereo not drawn) [Compound 223]")
"not satisfied"
>>> qualitative_label("[2H]C([2H])([2H])N1CCC(Oc2ccc(Nc3ncc4c(=O)n5n(c4n3)-c3cccc(n3)[C@@](C)(O)CCC=CC5)cc2C)CC1 (single isomer, unassigned) [Compound 171B]")
"satisfied"
>>> qualitative_label("Cc1cc(Nc2ncc3c(=O)n4n(c3n2)-c2cccc(n2)C(C)(O)CC/C=C\\C4)ccc1O[C@@H]1CCN(C)C1 (stereo partly drawn) [Compound 183]")
"not satisfied"
